These entries and their values trace back to patent US11116726B2.

Assay: Intravenous tolerability / LD50 in mice
Details: mouse, in vivo
REPORTED_ENDPOINT: LD50
Report the figure along with its unit, number first.

Output measured LD50 for this item: CS[C@H]1SC[C@H]2C(=O)N(C)[C@@H](C(C)C)C(=O)OC[C@@H](NC(=O)c3cnc4ccccc4n3)C(=O)N[C@@H](C)C(=O)N(C)[C@@H]1C(=O)N(C)[C@@H](C(C)C)C(=O)OC[C@@H](NC(=O)c1cnc3ccccc3n1)C(=O)N[C@@H](C)C(=O)N2C [free echinomycin, Echinomycin]
0.629 mg/kg
